Tested on: ATP;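 also: ATP exposure 15 min at 22 °C before imaging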
Experiment: switch fluorescence ratio, 500 uM ATP over buffer (Cy3 cluster intensity, sum of 5 cycles each) (fold (ratio)); higher = stronger signal-on switching upon ATP binding; sequences stand for … in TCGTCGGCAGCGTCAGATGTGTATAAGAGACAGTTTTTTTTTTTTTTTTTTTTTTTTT…TC
Details: aptamer strand: ATP DNA aptamer (quencher-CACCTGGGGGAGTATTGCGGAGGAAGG + anchor), 100 nM annealed; ATP concentration: 500 uM
Assign switch fluorescence ratio to each entry below.
Numbers only.

Sample answers from the record:
// field: switch fluorescence ratio; key: CTTCCCGCCG ; value = 1.26

// field: switch fluorescence ratio; key: TTCAAGGATA ; value = 0.986

// field: switch fluorescence ratio; key: GGATAAGGGG ; value = 1.02

// field: switch fluorescence ratio; key: TCAGCGTGTG ; value = 1.02

Please report switch fluorescence ratio for every entry that follows.
1. TCAAAGAGGT
2. ACTCCTGGTT
3. CTTGTTGTTT
4. GAAGGCACGG

1. 0.982
2. 1.01
3. 1.03
4. 1.04
